Molecular target: T1, TNFR2-His (Sino Biological, 10417-H08H, NP_001057.1 Met1-Asp257, with multi-histidine tag expressed on … (human, UniProt P20333 23-257))
T1 construct: range 1-257; Bought protein; also called recombinant human TNFR2 protein; TNFR2-His antigen; not shown: C-terminal multi-histidine tag
T1 sequence (looked up): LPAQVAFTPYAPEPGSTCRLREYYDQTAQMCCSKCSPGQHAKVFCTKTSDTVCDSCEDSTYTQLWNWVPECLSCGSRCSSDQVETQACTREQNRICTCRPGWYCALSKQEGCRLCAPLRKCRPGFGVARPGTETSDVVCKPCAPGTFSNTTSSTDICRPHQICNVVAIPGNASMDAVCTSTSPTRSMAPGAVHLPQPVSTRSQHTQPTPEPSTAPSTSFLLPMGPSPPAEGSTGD
Experiment: ELISA, coated TNFR2-His
class 1 if EC50 is below 0.3 nM. class 0 if not; exact matches included in class 0.

Binder	Label
33C12huVH2 + huVL1(P07299) (antibody, V domains shown, Humanized 33C12) VH: EVQLVESGGGLVKPGGSLRLSCAASGFTFSDYTMSWVRQAPGKGLEWVATISTGGSYTYYPDSVKGRFTISRDNAKNTLYLQMSSLRAEDTAVYYCARDGGYDGDYFDYWGQGTTVTVSS VL: ENVLTQSPATLSLSPGERATMSCRASSSVSSSYLHWYQQKPGQAPRLWIYRTSNLASGVPARFSGSGSGTDYTLTISRVEPEDFAVYYCQQYSGYPLTFGGGTKLEIK	class 0
11G2huVH3 + huVL1(P07264) (antibody, V domains shown, Humanized 11G2) VH: QVQLVQSGAEVKKPGASVKVSCKASGYTFITYDINWVRQATGQGLEWIGWIYPRDGNTQFNENFQGRVTMTRNTSISTAYMELSSLRSEDTAVYYCARGDRDYGYFDVWGQGTTVTVSS VL: DIQMTPSTSSLSASVGDRVTITCRASQDISNYLNWYQQKPGKAVKLLIYFKSKLHSGVPSRFSGSGSGTDFTLTISSLQPEDFATYYCQQGNTLPLTFGGGTKLELK	class 0
human-mouse chimeric TNFR2 monoclonal antibody 29A1-hFc (antibody, V domains shown, Mouse V regions of clone 29A1 with human constant regions) VH: QVQLQQSGAEVVRPGASVTLSCKASGYTFSDYEMHWVKQTPVHGLEWIGAIDPETGDTAYNQKFKDKARVTADKSSSTAYMELRSLTSEDSAVYYCTRDIHYYGSSLSYFDYWGQGTTLTVSS VL: DIVMTQSQKFMSTSVGDRVSVTCKASQNVGTNVAWYQQKPGQSPKVMIYSASYRYSGAPDRFTGSGSGTDFTLTVNNVQSEDLAEYFCQQYKTYPYTFGGGTKLEIE	class 1
human-mouse chimeric TNFR2 monoclonal antibody 27F6-hFc (antibody, V domains shown, Mouse V regions of clone 27F6 with human constant regions) VH: EVQLQQSGTVLARPGASVKMSCKTSGYTFTSYWMHWVKQRPGQGLEWIGTIYPGNSDTSYNQKFKGKAKLTAVTSASTAYMELNSLTNEDSAVFYCTRENLLLRSYFFDYWGQGTTLTVSS VL: DIVMTQSPASLAVSLGQRATISCKASQSVDYDGDSYLNWYQQKPGQPPKLLIYAASNLPSGIPARFSGSGSGTDFTLNIHPVEEEDAATYYCQQSNEDPRTFGGGTKLEIK	class 1
33C12huVH3 + huVL2(P07302) (antibody, V domains shown, Humanized 33C12) VH: EVQLVESGGGLVKPGGSLRLSCAASGFTFSDYTMSWVRQAPGKGLEWVATISTGGSYTYYADSVKGRFTISRDNAKNSLYLQMNSLRAEDTAVYYCARDGGYDGDYFDYWGQGTTVTVSS VL: ENVLTQSPATLSLSPGERATLSCRASSSVSSSYLHWYQQKPGQAPRLWIYRTSNLASGVPARFSGSGSGTDFTLTISRLEPEDFAVYYCQQYSGYPLTFGGGTKLEIK	class 0
